# study-system: IGF-II (amino acids 1-67) (human, UniProt P01344 25-91)
# Sequence (P01344 25-91): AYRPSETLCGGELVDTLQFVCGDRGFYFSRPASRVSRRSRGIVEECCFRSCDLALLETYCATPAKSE
# protocol-details: cell-based or functional assay
observable: IC50, IGF-II stimulated BA/F3 cell proliferation (MTS) (µg/mL)

* M0072-G06 Fab (Fab, V domains shown, Soluble Fab from phage display; also called M0072-G06(R0032-C05)) VH: EVQLLESGGGLVQPGGSLRLSCAASGFTFSEYVMWWVRQAPGKGLEWVSVISPSGGYTVYADSVKGRFTISRDNSKNTLYLQMNSLRAEDTAVYYCARDRGGATTLDYWGQGTLVTVSS VL: DIQMTQSPSTLSASVGDRVTITCRASQTISSWLAWYQQKPGKAPKLMIYKAASLGSEVPSRFSGSGSGTEFTLTISSLQPEDFSTYYCQQYKTYPVTFGQGTRLEIKR | 8.7
* M0064-F02 Fab (Fab, V domains shown, Soluble Fab from phage display; also called M0064-F02(R0032-A11); 566A-M0064-F02) VH: EVQLLESGGGLVQPGGSLRLSCAASGFTFSNYIMWWVRQAPGKGLEWVSVISSSGGMTRYADSVKGRFTISRDNSKNTLYLQMNSLRAEDTAVYYCARDNGDYVGEKGFDIWGQGTMVTVSS VL: DIQMTQSPSSLSASVGDRVTITCRASQSISNYLNWYQQKPGKAPKLLIYTASTLQSGVPSRFSGSASGTDFTLTINSLQPEDFATYSCQQSYNSPWTFGQGTKVEIKR | 0.68
* M0064-E04 Fab (Fab, V domains shown, Soluble Fab from phage display; also called M0064-E04(R0032-A03); 566A-M0064-E04) VH: EVQLLESGGGLVQPGGSLRLSCAASGFTFSVYDMNWVRQAPGKGLEWVSSISSSGGGTLYADSVKGRFTISRDNSKNTLYLQMNSLRAEDTAVYYCARDSDTSSYYWYYDLWGRGTLVTVSS VL: DIQMTQSPSSLSASVGDRVTITCQASHDISNYLNWYQQKPGKAPKLLIYAASRLQSGVPSRFSGGGSGTDFSLTISSLQAEDFATYYCQQSYSFPRTFGQGTNLEIKR | 3.04
* M0063-F02 Fab (Fab, V domains shown, Soluble Fab from phage display; also called M0063-F02(R0032-A01)) VH: EVQLLESGGGLVQPGGSLRLSCAASGFTFSKYEMDWVRQAPGKGLEWVSVISSSGGGTIYADSVKGRFTISRDNSKNTLYLQMNSLRAEDTAMYYCARGRTLYGGAFDIWGQGTMVTVSS VL: DIQMTQSPSSLSASVGDRVTITCRASQPINTYLNWYQQRPGKAPRILIYTSSTLQSGVPSRFSGSGSGTDFTLTISSVQPEDFATYYCQQSYSFPLTFGGGTKVEIKR | 5.56

Data origin: patent US20110262446A1
